Provide the reported IC50 of each item.
Biological target: T1, Human VSIG4-L-Fc (human)
T1 construct: also called hVSIG4-L-Fc; hVSIG4-L
T1 sequence (chain, as listed by the source limits assumed): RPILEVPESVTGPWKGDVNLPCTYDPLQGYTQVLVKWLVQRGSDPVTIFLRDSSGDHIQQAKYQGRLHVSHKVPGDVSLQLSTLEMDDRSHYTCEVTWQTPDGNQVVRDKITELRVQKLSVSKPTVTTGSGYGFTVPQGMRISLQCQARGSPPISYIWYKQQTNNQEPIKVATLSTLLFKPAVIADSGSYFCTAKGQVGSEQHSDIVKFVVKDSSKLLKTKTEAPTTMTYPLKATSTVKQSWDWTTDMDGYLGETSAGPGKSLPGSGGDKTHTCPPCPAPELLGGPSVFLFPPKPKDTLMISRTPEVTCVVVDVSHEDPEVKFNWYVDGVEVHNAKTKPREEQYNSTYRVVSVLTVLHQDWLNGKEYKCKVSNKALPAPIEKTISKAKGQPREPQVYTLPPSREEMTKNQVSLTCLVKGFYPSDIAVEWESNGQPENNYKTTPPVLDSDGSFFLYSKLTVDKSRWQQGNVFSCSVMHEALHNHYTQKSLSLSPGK
Test: ligand competition ELISA (FJB), blocked ligand iC3b
Record the result as a number with its unit.

Fill in IC50 for each of the 2 binders listed.
1. 15C04 mouse/human chimeric IgG4 (S228P) kappa (antibody, V domains shown) VH: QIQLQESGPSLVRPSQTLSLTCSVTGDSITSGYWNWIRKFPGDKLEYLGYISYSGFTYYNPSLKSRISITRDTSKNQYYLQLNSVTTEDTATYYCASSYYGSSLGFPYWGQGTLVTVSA VL: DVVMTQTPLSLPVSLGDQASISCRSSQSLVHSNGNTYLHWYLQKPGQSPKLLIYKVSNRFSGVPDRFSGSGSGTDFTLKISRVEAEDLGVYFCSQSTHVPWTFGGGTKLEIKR
2. 16E10 mouse/human chimeric IgG4 (S228P) kappa (antibody, V domains shown) VH: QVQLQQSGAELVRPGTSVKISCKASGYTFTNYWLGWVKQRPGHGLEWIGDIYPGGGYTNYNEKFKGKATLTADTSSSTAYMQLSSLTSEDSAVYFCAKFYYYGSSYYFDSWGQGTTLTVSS VL: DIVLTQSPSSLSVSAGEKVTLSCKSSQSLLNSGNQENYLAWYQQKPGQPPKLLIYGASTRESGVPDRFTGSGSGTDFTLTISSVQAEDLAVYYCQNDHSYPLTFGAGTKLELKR

result:
["17 nM", "3.6 nM"]
